- System: UACC-62 melanoma
- ASSAY OVERVIEW: NCI tumour cell line growth inhibition, 48 h
OBSERVATION TYPE: TGI (µM)
Reply with just the number (in µM).

Here's what some known entries look like.
| COMPOUND | RECORDED NUMBER |
| --- | --- |
| COC(=O)c1cc(-c2ccc(OC)cc2)[nH]c1N/N=C/c1c(Cl)cccc1Cl | 16.8 |
| C[PH+](c1nc2ccccc2nc1[PH+](C)C(C)(C)C)C(C)(C)C.C[PH+](c1nc2ccccc2nc1[PH+](C)C(C)(C)C)C(C)(C)C.[Au+].[Cl-] (stereo unspecified) | 0.165 |
| CCCCCCNC(=O)Oc1ccc(/C(=C(/C)Cc2ccc(OC)cc2)c2ccc(OCCN(C)C)cc2)cc1 | 8.72 |
| C=CC(OC(C)=O)c1ccc(OC(C)=O)cc1 (stereo unspecified) | 28.1 |
| COC(=O)/C=C1\C(=O)C=C2[C@@H]3C[C@H]4C[C@H](CC[C@@]4(C)N21)C3(C)NC(C)=O (stereo partly specified) | 35 |

Query: State the recorded TGI for this entry: COC(=O)c1ccc2c(c1)C(=O)c1c-2n(CCCN)c(=O)c2cc(OC)c(OC)cc12
Reply: 30.2

Query: Record: Nn1c(Sc2nc3ccccc3c(=O)n2N)nc2ccccc2c1=O
Reply: 25.6

Query: // next record CCCCN(CC)c1ncnc2ccc(Br)cc12
Reply: 34.7

Query: Queued: CN(C)CCCc1c2ccccc2nc2ccc(Cl)cc12
Reply: 34.2

Query: Repeat for the following compound: COC(=O)[C@]1(C)CCC[C@@]2(C)[C@@H]3C[C@@H]4[C@H]5C[C@@]3(CC[C@@H]21)C[C@@]45C
Reply: 28

Query: Also need CC12CC=CCC1CCC1C2CCC2(C)C(c3ccc(=O)oc3)CCC12O (stereo unspecified) , thanks.
Reply: 0.661

Query: Ok, now CC1CN=C(c2ccc(CN3CCC(C4CCN(Cc5ccc(C6=NCC(C)N6)cc5)CC4)CC3)cc2)N1 (stereo unspecified)
Reply: 41.7

Query: What about this compound? COc1cc(C2c3cc4c(cc3[C@@H](OCCN(C)C)C3COC(=O)[C@H]23)OCO4)cc(OC)c1O (stereo partly specified)
Reply: 1.38

Query: One more compound: CCCCNC(=O)Oc1ccc(/C(=C(/CC)Cc2ccccc2)c2ccc(OCCN3CCCCCC3)cc2)cc1
Reply: 38

Query: // next record C=C(C)[C@@H]1CC[C@]2(CO)CC[C@]3(C)[C@H](CC[C@@H]4[C@@](C)(CCCN)[C@H](C(=C)C)CC[C@]43C)[C@@H]12
Reply: 3.09

Query: And what about the compound Cc1c(C(=O)CC(=O)C(=O)Nc2cc(Cl)ccc2Cl)[n+](=O)c2ccccc2n1[O-] ?
Reply: 40.2
